method: A549 lung cancer cell viability effects, profiling panel, resazurin fluorescence, 24 h, PK04 Diversity Set (AID 1171); note: test concentration not given here
conditionParameters: higher = more signal, called active from +8 up or from −8 down
readoutLabel: z-score
Please reply with the value in numeric form only.

# input I have this compound here, CCOC(=O)NN=C1C[C@@H](O)[C@@H](O)[C@@H]2[C@@H]3C(=O)N(C(C)(C)C)C(=O)[C@@H]3CC[C@@H]12 , and I need its recorded z-score.
# output -0.452

# input I have this compound here, CO[C@H]1COC(=O)[C@@H]2CCCN2C(=O)[C@@H](C)COC(=O)CC=C[C@@H]1C , and I need its recorded z-score.
# output 0.314

# input I have this compound here, CCc1cc2c(nc1CC)CCN(CCC(C)=NO[C@@H](C)c1cc(-c3c(C)cc(C)cc3C)no1)C2 , and I need its recorded z-score.
# output 0.323

# input I have this compound here, COCCOC(=O)N1C(=O)[C@@]2(c3cc(C#CC4(O)CCCCCC4)ccc31)[C@H](c1ccc(OCCO)cc1)N1[C@H](c3ccccc3)[C@H](c3ccccc3)OC(=O)[C@H]1[C@@H]2C(=O)NC[C@H](O)c1ccccc1 , and I need its recorded z-score.
# output 0.702

# input I have this compound here, CCN1C(=O)[C@H]2[C@H]3[C@H](O)[C@H](O)CC(=NOCC=C(C)CCC=C(C)C)[C@H]3CC[C@H]2C1=O , and I need its recorded z-score.
# output -1.01

# input I have this compound here, C[C@H](c1ccccc1)N1C(=O)[C@H]2[C@@H]3C(=CC[C@H]2C1=O)C(=O)[C@H]1O[C@H]1[C@H]3O , and I need its recorded z-score.
# output -2.16

# input I have this compound here, C#CCCCON=C1C[C@@H](O)[C@@H](O)[C@@H]2[C@@H]3C(=O)N(CCC(=O)OCC)C(=O)[C@@H]3CC[C@@H]12 , and I need its recorded z-score.
# output -0.0981

---

testTarget: Alpha-bungarotoxin (Bungarus multicinctus)
method: alpha-bungarotoxin binders on microarray, profiling panel, artefact control for SMM control protein annotation, biochemical, small-molecule microarray, Alexa647 label, 635/667 nm fluorescence (AID 1117)
conditionParameters: alpha-BTX-A647 binding fluorescence, higher = more signal
readoutLabel: composite z-score

# input Which composite z-score is reported with Alpha-bungarotoxin (Bungarus multicinctus) for this entry: CC(C)C[C@@H]1NC(=O)[C@H]2C[C@@H](C(=O)NCCCCCCN(C)C)[C@@H](c3cccc(OCCO)c3)N2C1=O ?
# output 1.61

# input Which composite z-score is reported with Alpha-bungarotoxin (Bungarus multicinctus) for this entry: COCCOC(=O)N1C(=O)[C@@]2(c3cc(C#Cc4ccc(OC)cc4)ccc31)[C@H](C(=O)N1CCN(c3ncccn3)CC1)[C@H]1C(=O)O[C@H](c3ccccc3)[C@H](c3ccccc3)N1[C@@H]2c1ccc(OCCO)cc1 ?
# output 0.598

# input Which composite z-score is reported with Alpha-bungarotoxin (Bungarus multicinctus) for this entry: O=C1[C@H]2[C@H]3[C@H](O)[C@H](O)CC(=NO[C@@H]4O[C@H](CO)[C@@H](O)[C@H](O)[C@H]4O)[C@H]3CC[C@H]2C(=O)N1C1CCCCC1 ?
# output 0.0855

---

method: small-molecule binders of probe aNOTCH3, primary screen, biochemical, small-molecule microarray, 635/667 nm fluorescence (AID 1120);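 note: probe is a biotin-tagged antibody raised against NOTCH3 rather than NOTCH3 protein; score merges spot fluorescence near 667 nm with spot signal to noise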
conditionParameters: higher = more signal
Kindly supply the reported composite z-score values for the records listed here.
Please reply with the value in numeric form only.

# input I have this molecule here, C#CCCCON=C1C[C@@H](O)[C@@H](O)[C@@H]2[C@@H]3C(=O)N([C@@H](C)c4ccccc4)C(=O)[C@@H]3CC[C@H]12 , and I need its recorded composite z-score.
# output 0.0494

# input I have this molecule here, Cn1cccc1C(O)C1C=CC2C(=O)NC(=O)C2N1Nc1ccccn1 (stereo unspecified) , and I need its recorded composite z-score.
# output -0.0166

# input I have this molecule here, CC(=O)O[C@H]1C2=C(C(=O)[C@@H]3O[C@@H]31)[C@H]1C(C)O[C@@H]2[C@@]23C(=O)[C@@H]4O[C@@H]4[C@@H](O)C2=CO[C@H](C)[C@@H]13 (stereo partly specified) , and I need its recorded composite z-score.
# output 0.0026

# input I have this molecule here, CC(CCC(=O)OC[C@H]1O[C@H](C#Cc2ccccc2)C=C[C@@H]1Oc1ccc(C)cc1)=NO[C@@H](C)c1cn([C@H](CO)Cc2ccccc2)nn1 , and I need its recorded composite z-score.
# output 0.0026

# input I have this molecule here, Cc1cc2c(nc1C)CCCN2CC(O)CN1CCN(C)CC1 (stereo unspecified) , and I need its recorded composite z-score.
# output -0.0636

# input I have this molecule here, N#Cc1ccc(NN2C(C(O)c3cc(C(F)(F)F)cc(C(F)(F)F)c3)C=CC3C(=O)N(c4ccccc4)C(=O)C32)cc1 (stereo unspecified) , and I need its recorded composite z-score.
# output 0.425

# input I have this molecule here, CCOC(=O)CCN1C(=O)[C@H]2[C@H]3[C@H](O)[C@H](O)CC(=O)[C@H]3CC[C@H]2C1=O , and I need its recorded composite z-score.
# output 0.0282

# input I have this molecule here, CC(C)OC(=O)C=C1C[C@@H](c2ccc(C#N)cc2)O[C@@H](c2ccc(C#N)cc2)O1 , and I need its recorded composite z-score.
# output 0.725

# input I have this molecule here, CC(=O)OC[C@H]1O[C@H](CCON=C[C@@H](C)[C@H](OCc2ccccc2)C(C)C)C=C[C@@H]1OC(C)=O , and I need its recorded composite z-score.
# output 0.214

# input I have this molecule here, CC(C)(C)N1CC=CC23O[C@@H]4C=CCCOC(=O)C4[C@H]2C(=O)N(CCCCCO)[C@@H]3C1=O (stereo partly specified) , and I need its recorded composite z-score.
# output 0.285

# input I have this molecule here, CC(C)=C1C(=O)C(c2ccccc2)=C2CN3C(=O)N(CCc4ccccc4)C(=O)[C@]3(Cc3ccc(F)cc3)[C@H]21 , and I need its recorded composite z-score.
# output 0.186

# input I have this molecule here, CCOC(=O)CCN1C(=O)[C@H]2[C@H]3[C@H](O)[C@H](O)CC(=NOC[C@@H](O)COCc4ccco4)[C@H]3CC[C@H]2C1=O , and I need its recorded composite z-score.
# output 0.0059

# input I have this molecule here, C=C(/C(=C/C[C@H](OC(=O)c1ccncc1)c1ccc(OCCO)cc1)c1cnc2ccccc2c1)C(C)C , and I need its recorded composite z-score.
# output 0.173

# input I have this molecule here, C=C(CCCC)C(=O)CC[C@@H](OC(C)=O)c1cccc(OCCO)c1 , and I need its recorded composite z-score.
# output -0.0933

# input I have this molecule here, CCOC(=O)NN=C1C[C@@H](O)[C@@H](O)[C@@H]2[C@@H]3C(=O)N(C4CCCCC4)C(=O)[C@@H]3CC[C@@H]12 , and I need its recorded composite z-score.
# output -0.0598

# input I have this molecule here, O=C1[C@H]2[C@H]3[C@H](O)[C@H](O)CC(=NO[C@@H]4O[C@H](CO)[C@@H](O)[C@H](O)[C@H]4O)[C@@H]3CC[C@H]2C(=O)N1Cc1ccccc1 , and I need its recorded composite z-score.
# output 0.0744

---

Test system: glycogen synthase kinase-3 (GSK3A per assay name; protocol says GSK3B)
method: GSK3 binders on small-molecule microarrays, primary screen, biochemical, small-molecule microarray, 635 nm fluorescence, GSK3A (AID 1103); note: the record names both GSK3A and GSK3B
conditionParameters: small-molecule microarray binding, fluorescence 635 nm; higher = more signal
readoutLabel: composite z-score
Please reply with the value in numeric form only.

# input I have this compound here, COc1cccc([C@H]2Oc3ccc(OC)cc3C(=NOC(C)CN3CCCc4nc(C)c(C)cc43)[C@@H]2O)c1 (stereo partly drawn) , and I need its recorded composite z-score.
# output 0.827

# input I have this compound here, C#CCCCON=C1C[C@@H](O)[C@@H](O)[C@@H]2[C@@H]3C(=O)N([C@@H](C)c4ccccc4)C(=O)[C@@H]3CC[C@H]12 , and I need its recorded composite z-score.
# output 0.283

# input I have this compound here, COC(=O)[C@H]1COC(c2ccc(OCCCO)cc2)=N1 , and I need its recorded composite z-score.
# output -0.882

# input I have this compound here, O=C1[C@H]2[C@H]3[C@H](O)[C@H](O)CC(=NO[C@@H]4O[C@H](CO)[C@@H](O)[C@H](O)[C@H]4O)[C@@H]3CC[C@H]2C(=O)N1Cc1ccccc1 , and I need its recorded composite z-score.
# output -0.817

# input I have this compound here, COCCCNC(=O)[C@@]1(Sc2ccc(C)cc2)CC(=O)N(Cc2ccccc2)[C@@H]1c1ccc(CO)cc1I , and I need its recorded composite z-score.
# output -0.969

# input I have this compound here, COCCOC(=O)N1C(=O)[C@@]2(c3cc(C#CCNC(N)=O)ccc31)[C@H](c1ccccc1OCCO)N1[C@H](c3ccccc3)[C@H](c3ccccc3)OC(=O)[C@H]1[C@@H]2C(=O)N1CCN(c2ncccn2)CC1 , and I need its recorded composite z-score.
# output 0.375

# input I have this compound here, O=C1CCCC2OC12C(O)CCc1ccccc1 (stereo not drawn) , and I need its recorded composite z-score.
# output 0.263

# input I have this compound here, CC(=O)C[C@H](O)[C@@H](NC(=O)OC(C)(C)C)C(C)C , and I need its recorded composite z-score.
# output -1.45
